# measured target: GRHL3
# assay: pooled miR-30 sensor sort-seq; sequence = guide strand; further: reference of the scale not given here
# cond: shRNA
readout label: sensor-assay potency score (higher = more potent)

// returns reported sensor-assay potency score (higher = more potent) for input TTCTTCTTGAGCAAATCTGGGT
-0.605

Can you handle TATTCTTCTTGAGCAAATCTGG next?
-0.748

Can you handle TAGGTCGTCTCATTGCCCCTGA next?
0.415

Can you handle TCACAGAAGATCTTGATCTGGC next?
0.419

* * *

# measured target: SLCO4C1
# assay: pooled miR-30 sensor sort-seq; sequence = guide strand
# cond: shRNA
readout label: sensor-assay potency score (higher = more potent)
Just the number, please.

// returns reported sensor-assay potency score (higher = more potent) for input TTAACTACAATACCTTGCGTGA
-0.96

Can you handle TAATATTCAAGTATGCTGCTTC next?
0.868

Can you handle TTGTCTGTGATTAACACACCTT next?
-0.412

Can you handle TTATTTAAAAAGTATCACCTTA next?
0.0246

* * *

# measured target: SPRR2B
# assay: pooled miR-30 sensor sort-seq; sequence = guide strand
# cond: shRNA
Classify by measured sensor-assay potency score (higher = more potent): label 1 if it is equal to or exceeds -0.8, label 0 if it is smaller.

Record TTCCCAGGCACACAGCTGCAGC ; criterion: sensor-assay potency score (higher = more potent) no lower than -0.8. Met?
label 0

Can you handle TGAAGCTCTGGGAACTGACAAA next?
label 0

Can you handle TATGAATCCATGATAAGCTTTG next?
label 0

Can you handle TTAGAAAGGAAACCTTTTGCTA next?
label 1

Can you handle TAAGGGGAAAGAAGCTCCCTAT next?
label 1

Can you handle ATACTTTGGCTGGCAGGGTGGG next?
label 0

* * *

# measured target: ZNF77
# assay: pooled miR-30 sensor sort-seq; sequence = guide strand
# cond: shRNA
readout label: sensor-assay potency score (higher = more potent)

Requested read-out sensor-assay potency score (higher = more potent), target or system ZNF77, entry TAAAGTAAGTGGGACATCCGAA
-0.639

Can you handle TAACATAAATGTAACAATCCAA next?
-0.347

Can you handle TACAATTTCTTCATCATTGGAT next?
0.581

Can you handle TTCCACATTTCTGACATTCATA next?
-1.1

Can you handle TAATACATAAAGGTCTTCCCAC next?
-0.234

Can you handle TAGACCAGGAATCACTTCCTGT next?
-0.274

* * *

# measured target: APOBEC1
# assay: pooled miR-30 sensor sort-seq; sequence = guide strand
# cond: shRNA
Classify by measured sensor-assay potency score (higher = more potent): condition met if it is equal to or exceeds -0.8, condition not met if it is smaller.

Record ATAATCTGAATAGTTACTCCAC ; criterion: sensor-assay potency score (higher = more potent) no lower than -0.8. Met?
condition met

Can you handle TAAAATTAACTTCCACGTGATT next?
condition not met

Can you handle TAGTTGACAAAATTCCTCCAGC next?
condition met

Can you handle TACAACATCATCCACAGAGGTG next?
condition not met

Can you handle TAGAGTCACACCAGGGTGCCGA next?
condition not met

Can you handle TTGCCGATTTTGTTGATCCATG next?
condition not met

Can you handle TAATCTGAATAGTTACTCCACT next?
condition met

Can you handle TTTTTGCCTGAGCTTCGCCAGA next?
condition not met

Can you handle TTTTGTTGATCCATGTGCCAAA next?
condition not met

Can you handle TTTAGTGGGTCATCATTGCTTG next?
condition met

Can you handle TTGATTTCGTAGAGCAGACAGG next?
condition not met

Can you handle TTTTATAAAATTAACTTCCACG next?
condition met

Can you handle TGAAAATCTCTTTCTGACGTAA next?
condition met

Can you handle TCCACTGTTAACAAGGTCCCTG next?
condition not met

* * *

# measured target: DPPA5
# assay: pooled miR-30 sensor sort-seq; sequence = guide strand
# cond: shRNA
Give sensor-assay potency score (higher = more potent) for every item shown.
Just the number, please.

// returns reported sensor-assay potency score (higher = more potent) for input TTGAGCATCCCTCGCTCCTGGC
-0.972

Can you handle ATGGACTGGAGCATCCACTTGG next?
-0.436

Can you handle AGGGATTCGAGATCCGTCCGGG next?
-0.916

Can you handle TTTCAGGTCTTCGGGAACTTTC next?
-1.57

Can you handle TCTTCGGGAACTTTCACCCACG next?
-0.874

Can you handle TTTGAGCATCCCTCGCTCCTGG next?
-0.61

Can you handle TAAACCACGACCTCGGTGAGGT next?
-0.536

Can you handle TGTAAGGGATTCGAGATCCGTC next?
-0.0102

* * *

# measured target: PEBP1
# assay: pooled miR-30 sensor sort-seq; sequence = guide strand
# cond: shRNA
Classify by measured sensor-assay potency score (higher = more potent): yes if it is equal to or exceeds -0.4, no if it is smaller.

Record TAAACCAGCCAGACATAGCGGT ; criterion: sensor-assay potency score (higher = more potent) no lower than -0.4. Met?
no

Can you handle ATACATGCAACACTGAACTGGG next?
yes

Can you handle TATACATGCAACACTGAACTGG next?
yes

Can you handle TAATCGGAGAGGACTGTGCCAC next?
yes

Can you handle TTTGATCAAAACATAAATCAGA next?
no

Can you handle TAAAATCACATTGTGTACCATT next?
no

Can you handle TATCACTGTAGACCTGGTCTTT next?
no

Can you handle TAACACGTGCCAGCCACCGGGG next?
no

* * *

# measured target: CCDC111
# assay: pooled miR-30 sensor sort-seq; sequence = guide strand
# cond: shRNA
Classify by measured sensor-assay potency score (higher = more potent): met if it is equal to or exceeds -0.3, not met if it is smaller.

Record TTGTAAACTCTTCTTCCTCTTT ; criterion: sensor-assay potency score (higher = more potent) no lower than -0.3. Met?
met

Can you handle TTTGATGATTTATATAGCCGAA next?
not met

Can you handle TAAAAGCTTGAGCTTGTCGATG next?
not met

Can you handle TTGTCGATGAAATAGTCTCCAG next?
not met

Can you handle TATTTCTTGTATAAACTCCGAG next?
met

Can you handle TAAACCAGTAATTCTTCTGGGA next?
met

Can you handle TATAGTAAAACCAAAATTCAGC next?
not met

* * *

# measured target: DCPS
# assay: pooled miR-30 sensor sort-seq; sequence = guide strand
# cond: shRNA
readout label: sensor-assay potency score (higher = more potent)
Just the number, please.

Requested read-out sensor-assay potency score (higher = more potent), target or system DCPS, entry TAGGAAAATGATTTTGTCCCGC
-0.432

Can you handle ATTCCTGTAGTCATCTCCCGTC next?
-0.108

Can you handle TTCTGCAGGTGTTTCTCTGTGG next?
0.117

Can you handle TTATACACCCACTGGATGCTGA next?
-0.178

Can you handle TATTCCTGTAGTCATCTCCCGT next?
-0.287

Can you handle TAGTCATCTCCCGTCTCTCGGA next?
-0.952

Can you handle TTGTCTTGGAGGGAACAAGTGA next?
-0.588

* * *

# measured target: NOLC1
# assay: pooled miR-30 sensor sort-seq; sequence = guide strand
# cond: shRNA
Give sensor-assay potency score (higher = more potent) for every item shown.
Just the number, please.

// returns reported sensor-assay potency score (higher = more potent) for input TTGCCTGTAACTTTCGCTCTGG
0.151

Can you handle TTGCTTTAGAGACTACTGCCTT next?
-0.589

Can you handle TTAGCTTTCTTAGCCACTGGTC next?
-0.169

Can you handle TTAGGTACAGTCTTCTTGGGGG next?
0.125

Can you handle TAACTTTCGCTCTGGGACCTTG next?
-0.857

Can you handle TTTGGTGAACTTCAAAACCTGA next?
-0.529

* * *

Give sensor-assay potency score (higher = more potent) for every item shown.
# measured target: LENG8
# assay: pooled miR-30 sensor sort-seq; sequence = guide strand
# cond: shRNA
Just the number, please.

// returns reported sensor-assay potency score (higher = more potent) for input TTCTTCAGCTCTCGCTCCGGGT
-0.923

Can you handle TTGTCCTTCATGAAGACGTTGC next?
-0.437

Can you handle TTCTCGTGTGAGGTATGCCAGC next?
-1.1

Can you handle TCCACCGTGAACTCGGTGCGGA next?
-1.28

Can you handle TTGAGCAGCTTTTCCGTGCGGT next?
0.289

Can you handle TAAATTTACAACCCAAGTCCAC next?
-0.679

Can you handle TAGTCCTGCTTCTCTTTCCAGT next?
-0.999
